Molecular target: hP2Y12R (Homo sapiens, UniProt Q9H244)
Sequence (Q9H244 whole entry): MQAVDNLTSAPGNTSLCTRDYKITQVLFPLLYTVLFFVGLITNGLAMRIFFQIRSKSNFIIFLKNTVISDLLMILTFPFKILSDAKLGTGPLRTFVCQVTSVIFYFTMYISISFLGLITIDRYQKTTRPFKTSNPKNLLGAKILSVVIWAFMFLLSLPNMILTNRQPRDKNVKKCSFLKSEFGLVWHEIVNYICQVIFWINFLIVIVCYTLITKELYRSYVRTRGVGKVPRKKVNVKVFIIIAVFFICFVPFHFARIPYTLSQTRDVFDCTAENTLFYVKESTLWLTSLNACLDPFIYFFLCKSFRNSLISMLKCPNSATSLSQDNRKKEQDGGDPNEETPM
Assay: radioligand displacement of [3H]AZ12464237
Type: binding
Structures can show the parent of a compound that is named as a salt.
Parameter: Ki. Scope: all listed entries.

{"columns": ["Compound", "Limit sign", "Ki / nM"],
 "data": [
  ["CCCSc1nc(N[C@@H]2C[C@H]2c2ccc(F)c(F)c2)c2nnn([C@@H]3C[C@H](OCCO)[C@@H](O)[C@H]3O)c2n1", "=", 20.1],
  ["Cc1nc(N=Nc2cc([N+](=O)[O-])ccc2Cl)c(COP(=O)(O)O)c(C=O)c1O", "=", 3240],
  ["CSc1nc(N)c2ncn([C@@H]3O[C@H](COP(=O)(O)OP(=O)(O)O)[C@@H](O)[C@H]3O)c2n1 [2MeSADP, 2-methylthio-adenosine-5’-diphosphate]", "=", 18.9],
  ["CNc1cc2[nH]c(=O)n(-c3ccc(NC(=O)NS(=O)(=O)c4ccc(Cl)s4)cc3)c(=O)c2cc1F", "=", 7],
  ["CCOC(=O)c1cc(C#N)c(N2CCC(C(=O)NS(=O)(=O)Cc3ccccc3)CC2)nc1C", "=", 2.66],
  ["S=C=Nc1cccc(NC(=S)NCCCCNC(=S)Nc2cccc(N=C=S)c2)c1", ">", 100000],
  ["O=C(O)c1cc(-c2ccc(C3CCNCC3)cc2)c2ccc(-c3ccc(C(F)(F)F)cc3)cc2c1 [PPTN·HCl]", ">", 10000],
  ["Nc1c(S(=O)(=O)O)cc(Nc2ccc(Nc3ccccc3)c(S(=O)(=O)O)c2)c2c1C(=O)c1ccccc1C2=O", "=", 25.6]
]}

====

Biological target: rP2Y12R (Rattus norvegicus, UniProt Q9EPX4)
Sequence (Q9EPX4 whole entry): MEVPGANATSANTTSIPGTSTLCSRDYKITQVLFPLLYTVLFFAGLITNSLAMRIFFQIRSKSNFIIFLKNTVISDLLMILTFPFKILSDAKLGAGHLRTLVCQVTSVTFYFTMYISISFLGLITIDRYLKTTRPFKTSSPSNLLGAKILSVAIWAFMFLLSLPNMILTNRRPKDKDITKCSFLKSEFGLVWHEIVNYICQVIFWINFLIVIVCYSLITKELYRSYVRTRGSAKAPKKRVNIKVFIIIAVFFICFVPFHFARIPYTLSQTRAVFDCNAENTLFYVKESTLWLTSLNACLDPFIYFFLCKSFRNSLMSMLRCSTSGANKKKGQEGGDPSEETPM

{"columns": ["Compound", "Ki, nM"],
 "data": [
  ["CNc1cc2[nH]c(=O)n(-c3ccc(NC(=O)NS(=O)(=O)c4ccc(Cl)s4)cc3)c(=O)c2cc1F [elinogrel]", 55],
  ["CCCSc1nc(N[C@@H]2C[C@H]2c2ccc(F)c(F)c2)c2nnn([C@@H]3C[C@H](OCCO)[C@@H](O)[C@H]3O)c2n1 [ticagrelor]", 48.8]
]}

====

Molecular target: rP2Y12R (Rattus norvegicus, UniProt Q9EPX4)
pKd: −log10 of the molar value.
Experimental readout: pKd

{"columns": ["Molecule", "Experimental readout", "Reported measurement"],
 "data": [
  ["CCOC(=O)c1cc(C#N)c(N2CC(NC(=O)NS(=O)(=O)c3ccc(Cl)s3)C2)nc1C [AZ12464237]", "pKd", 7.78]
]}

Values were extracted from paper doi:10.1101/2024.10.10.617599v1.
